Test system human NK-3 receptor (Homo sapiens (Human), UniProt P29371), pKi listed for each of the molecules.
pKi: −log10 of the molar value.

[
  {
    "molecule": "O=C(c1ccc(-c2ccccc2)cc1)N1CCn2c(nnc2-c2ccccn2)C1",
    "test.value": "5.30 to 6.00"
  }
]

API: value(readout= pKi, system= human NK-3 receptor (Homo sapiens (Human), UniProt P29371), query= CC1c2nnc(-c3coc(-c4ccccc4)n3)n2CCN1C(=O)c1ccc(F)cc1 (stereo not shown) )
> 6.30

API: value(readout= pKi, system= human NK-3 receptor (Homo sapiens (Human), UniProt P29371), query= Cn1cc(-c2nnc3n2CCN(C(=O)c2ccc(-c4cccs4)cc2)C3)nc1-c1ccccc1 )
6.00 to 6.30

API: value(readout= pKi, system= human NK-3 receptor (Homo sapiens (Human), UniProt P29371), query= O=C(c1ccc(Cl)cc1)N1CCn2c(nnc2-c2ccccn2)C1 )
5.30 to 6.00

----------
pKi: −log10 of the molar value.
Test system human NK-3 receptor (Homo sapiens (Human)), pKi listed for each of the compounds.

Worked cases, answers included:
[
  {
    "compound": "O=C(c1cc(-c2ccc(Cl)c(Cl)c2)n[nH]1)N1CCn2c(nnc2-c2ccccn2)C1 [Compound 4]",
    "test.value": "5.30 to 6.00"
  },
  {
    "compound": "O=C(c1ccc(-c2cccs2)cc1)N1CCn2c(nnc2-c2csc(-c3ccccn3)n2)C1 [Compound 224]",
    "test.value": "> 6.30"
  },
  {
    "compound": "O=C(c1ccc(F)cc1)N1CCn2c(nnc2-c2csc(-c3ccc(N4CCCC4)cc3)n2)C1 [Compound 246]",
    "test.value": "> 6.30"
  }
]

# ---- query compound ----
Look at this compound and give its reported pKi. Cc1sccc1-c1ccc(C(=O)N2CCn3c(-c4csc(-c5ccc(F)cc5)n4)nnc3[C@H]2C)cc1 [Compound 234]
> 6.30

----------
Test system human NK-3 receptor (Homo sapiens (Human), UniProt P29371), Ki listed for each of the molecules.

[
  {
    "molecule": "CC1CN(c2nc(-c3nnc4n3CCN(C(=O)c3ccc(-c5cccs5)cc3)C4)cs2)C(C)CO1 (stereo not shown) [Compound 261]",
    "Ki": "< 500 nM"
  },
  {
    "molecule": "C[C@H]1c2nnc(-c3csc(N4CCOCC4)n3)n2CCN1C(=O)c1ccc(-c2cccs2)cc1 [Compound 227]",
    "Ki": "500 to 1000 nM"
  },
  {
    "molecule": "O=C(c1ccc(F)cc1)N1CCn2c(nnc2-c2csc(N3CCN(c4ccccc4)CC3)n2)C1 [Compound 34]",
    "Ki": "< 500 nM"
  }
]

Look at this molecule and give its reported Ki. O=C(c1ccc(F)cc1)N1CCn2c(nnc2-c2noc(-c3ccccc3)n2)C1 [Compound 173]
< 500 nM

----------
Test system human NK-3 receptor (Homo sapiens (Human), UniProt P29371), Ki listed for each of the compounds.

[
  {
    "compound": "CC1c2nnc(-c3csc(-c4ccc(F)cc4F)n3)n2CCN1C(=O)c1ccc(F)cc1 (stereo not shown) [Compound 77]",
    "Ki": "< 500 nM"
  },
  {
    "compound": "O=C(c1ccc(F)cc1)N1CCn2c(nnc2-c2cccc(N3CCOCC3)n2)C1 [Compound 38]",
    "Ki": "< 500 nM"
  }
]

Look at this compound and give its reported Ki. Cc1sccc1-c1ccc(C(=O)N2CCn3c(-c4csc(-c5ccc(F)cc5)n4)nnc3[C@@H]2C)cc1 [Compound 233]
< 500 nM

Look at this compound and give its reported Ki. COCC1CCCCN1c1nc(-c2nnc3n2CCN(C(=O)c2ccc(F)cc2)C3)cs1 (stereo not shown) [Compound 277]
> 5000 nM

----------
Test system human NK-3 receptor (Homo sapiens (Human)), pKi listed for each of the compounds.
pKi: −log10 of the molar value.

API: value(readout= pKi, system= human NK-3 receptor (Homo sapiens (Human)), query= O=C(c1ccc(-c2ccccc2)cc1)N1CCn2c(nnc2-c2csc(-c3ccccc3)n2)C1 )
> 6.30

API: value(readout= pKi, system= human NK-3 receptor (Homo sapiens (Human)), query= C[C@@H]1c2nnc(-c3ccc4ccccc4n3)n2CCN1C(=O)c1ccc(-c2cccs2)cc1 )
> 6.30

API: value(readout= pKi, system= human NK-3 receptor (Homo sapiens (Human)), query= O=C(c1cc(-c2ccc(C(F)(F)F)cc2)n[nH]1)N1CCn2c(nnc2-c2ccccn2)C1 )
5.30 to 6.00

API: value(readout= pKi, system= human NK-3 receptor (Homo sapiens (Human)), query= O=C(c1ccc(-c2cccs2)cc1)N1CCn2c(nnc2-c2csc(-c3cccc(F)c3)n2)C1 )
> 6.30

API: value(readout= pKi, system= human NK-3 receptor (Homo sapiens (Human)), query= Cn1nc(-c2ccc(Cl)c(Cl)c2)cc1C(=O)N1CCn2c(nnc2-c2ccccn2)C1 )
5.30 to 6.00

API: value(readout= pKi, system= human NK-3 receptor (Homo sapiens (Human)), query= Cc1ccc(-c2ccc(C(=O)N3CCn4c(-c5csc(-c6ccc(F)cc6)n5)nnc4C3C)cc2)s1 (centres unmarked) )
> 6.30

API: value(readout= pKi, system= human NK-3 receptor (Homo sapiens (Human)), query= O=C(c1ccc(-c2ccc(F)cc2)cc1)N1CCn2c(nnc2-c2csc(-c3ccccc3F)n2)C1 )
> 6.30

API: value(readout= pKi, system= human NK-3 receptor (Homo sapiens (Human)), query= O=C(c1ccc(F)cc1)N1CCn2c(nnc2-c2csc(-c3ccccn3)n2)C1 )
5.30 to 6.00

----------
Test system human NK-3 receptor (Homo sapiens (Human), UniProt P29371), Ki listed for each of the compounds.

Worked cases, answers included:
[
  {
    "compound": "O=C(c1ccc(-c2cccs2)cc1)N1CCn2c(nnc2-c2csc(-c3ccc(F)cc3)n2)C1 [Compound 73]",
    "target.under.test": "human NK-3 receptor (Homo sapiens (Human), UniProt P29371)",
    "quantity.kind": "Ki",
    "test.value": "< 500 nM"
  },
  {
    "compound": "O=C(c1ccc(-c2cccs2)cc1)N1CCn2c(nnc2-c2cc(-c3ccccc3)n(CCO)n2)C1 [Compound 285]",
    "target.under.test": "human NK-3 receptor (Homo sapiens (Human), UniProt P29371)",
    "quantity.kind": "Ki",
    "test.value": "< 500 nM"
  },
  {
    "compound": "O=C(c1ccc(-c2cccs2)cc1)N1CCn2c(nnc2-c2csc(-c3ncccn3)n2)C1 [Compound 226]",
    "target.under.test": "human NK-3 receptor (Homo sapiens (Human), UniProt P29371)",
    "quantity.kind": "Ki",
    "test.value": "> 5000 nM"
  }
]

API: value(readout= Ki, system= human NK-3 receptor (Homo sapiens (Human), UniProt P29371), query= O=C(c1ccc(F)cc1)N1CCn2c(nnc2-c2cccc(C(F)(F)F)n2)C1 [Compound 39] )
500 to 1000 nM

----------
Test system human NK-3 receptor (Homo sapiens (Human)), Ki listed for each of the compounds.

[
  {
    "compound": "O=C(c1ccc(F)cc1)N1CCn2c(nnc2-c2cc(-c3ccccc3)n[nH]2)C1 [Compound 269]",
    "target.under.test": "human NK-3 receptor (Homo sapiens (Human))",
    "Ki": "0.5 to 1 µM"
  }
]

API: value(readout= Ki, system= human NK-3 receptor (Homo sapiens (Human)), query= O=C(c1ccc(F)cc1)N1CCn2c(nnc2-c2csc(N3CCOCC3)n2)C1 [Compound 9] )
< 0.5 µM

API: value(readout= Ki, system= human NK-3 receptor (Homo sapiens (Human)), query= O=C(c1ccc(F)cc1)N1CCn2c(nnc2-c2csc(-c3ccncc3)n2)C1 [Compound 218] )
1 to 5 µM

API: value(readout= Ki, system= human NK-3 receptor (Homo sapiens (Human)), query= O=C(c1ccc(F)cc1)N1CCn2c(nnc2-c2ccc3cccc(Cl)c3n2)C1 [Compound 23] )
0.5 to 1 µM

API: value(readout= Ki, system= human NK-3 receptor (Homo sapiens (Human)), query= CC1c2nnc(-c3coc(-c4ccccc4)n3)n2CCN1C(=O)c1ccc(-c2cccs2)cc1 (centres unmarked) [Compound 114] )
< 0.5 µM

API: value(readout= Ki, system= human NK-3 receptor (Homo sapiens (Human)), query= CC1(C)c2nnc(-c3csc(-c4ccccc4)n3)n2CCN1C(=O)c1ccc(F)cc1 [Compound 60] )
< 0.5 µM

API: value(readout= Ki, system= human NK-3 receptor (Homo sapiens (Human)), query= C[C@@H]1c2nnc(-c3ccccn3)n2CCN1C(=O)c1ccc(F)cc1 [Compound 44] )
1 to 5 µM

API: value(readout= Ki, system= human NK-3 receptor (Homo sapiens (Human)), query= C[C@@H]1c2nnc(-c3ccc4ccccc4n3)n2CCN1C(=O)c1ccc(F)cc1 [Compound 115] )
< 0.5 µM
